Where these numbers come from: paper PMC7566566

# TARGET_OR_SYSTEM: T1, Hera (Thermus thermophilus, UniProt O07897 1-510)
# T1 sequence: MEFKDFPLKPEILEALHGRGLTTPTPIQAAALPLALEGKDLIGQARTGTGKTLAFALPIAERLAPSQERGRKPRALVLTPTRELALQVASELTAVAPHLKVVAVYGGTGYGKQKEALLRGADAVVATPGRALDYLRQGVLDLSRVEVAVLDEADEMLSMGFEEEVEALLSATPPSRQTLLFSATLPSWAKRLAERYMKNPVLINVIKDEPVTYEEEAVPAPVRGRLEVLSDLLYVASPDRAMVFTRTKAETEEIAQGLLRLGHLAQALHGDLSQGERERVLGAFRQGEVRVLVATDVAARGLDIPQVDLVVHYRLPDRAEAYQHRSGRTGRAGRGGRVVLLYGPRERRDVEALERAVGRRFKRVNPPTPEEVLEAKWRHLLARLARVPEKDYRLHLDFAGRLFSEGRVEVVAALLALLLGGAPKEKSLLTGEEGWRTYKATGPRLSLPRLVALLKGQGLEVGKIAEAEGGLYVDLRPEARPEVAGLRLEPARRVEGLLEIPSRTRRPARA
# PROTOCOL_TEXT: competition
Each record here notes measured pKd.
In textbook form, pKd equals minus log to base ten of the concentration in mol/L.

Some binders with known pKd results, for comparison:
| BINDER | pKd |
| --- | --- |
| tRNAPro (TT_RS01350) (structured_RNA) RNA: CGGGGCGUAGCGCAGGCCGGUAGCGCACCUGCUUUGGGAGCAGGGGGUCGCCCGUUCAAAUCGGGCCGCCCCGACCA | 5.85 |
| tRNAPro (TT_RS09670) (structured_RNA) RNA: CGGGGAGUAGCGCAGCCUGGUAGCGCACACGCUUGGGGUGCGUGGGGUCGUCGGUUCAAAUCCGGCCUCCCCGACCA | 6.40 |
| tRNAGly (TT_RS08190) (structured_RNA) RNA: GCGGGAGUAGCUCAGUCGGUAGAGCACGACCUUGCCAAGGUCGGGGUCGCGGGUUCAAGUCCCGUCUCCCGCUCCA | 6.40 |
| UUUUUUUUUUUUUUUUUUUUUUUUUUUUUUUUUUUUUUUUUUUUUUUUUU (ssRNA) [50U] | 6.62 |
| tRNATyr (TT_RS08805) (structured_RNA) RNA: GGGCAGGUGCCCGAGCGGCCAAAGGGGACGGUCUGUAAAACCGUUGGCGUAUGCCUUCGCUGGUUCGAAUCCAGCCCUGCCCACCA | 6.40 |

Give the reported pKd for this binder. tRNAPro (TT_RS02830) (structured_RNA) RNA: CGGGGAGUAGCGCAGCCCGGUAGCGCACCUCGUUCGGGACGAGGGGGUCGCUGGUUCAAAUCCAGUCUCCCCGACCA
6.22

Give the reported pKd for this binder. tRNASer (TT_RS06780) (structured_RNA) RNA: GGAGAGGUGGCCGAGUGGUCGAAGGCGGCACCCUGCUAAGGUGUUGCACCGGGAAAACCGGUGCCGCGGGUUCGAAUCCCGCCCUCUCCGCCA
7.22
